biological target: Melanocortin receptor 4 (Homo sapiens); assay: Agonist activity at human MC4R expressed in HEK293 cells assessed as intracellular cAMP accumulation; format: functional, cell-based
Sequence (P32245 whole entry): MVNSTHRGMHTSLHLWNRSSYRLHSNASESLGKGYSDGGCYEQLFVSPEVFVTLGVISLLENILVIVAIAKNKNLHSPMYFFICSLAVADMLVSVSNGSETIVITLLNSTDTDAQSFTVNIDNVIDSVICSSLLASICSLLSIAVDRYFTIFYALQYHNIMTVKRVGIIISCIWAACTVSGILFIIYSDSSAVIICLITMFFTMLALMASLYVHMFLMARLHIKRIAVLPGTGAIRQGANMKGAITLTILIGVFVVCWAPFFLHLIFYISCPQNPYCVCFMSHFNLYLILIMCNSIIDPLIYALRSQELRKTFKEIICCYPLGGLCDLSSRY
Positions of bridges follow the written chain, without caps; N, C: chain ends. Non-standard residues stand in square brackets, D forms with d. Residues, ends and D or L forms follow the SMILES beside them.
Endpoint Name: EC50

CC(=O)N[C@H]1CC(=O)NCCCC[C@@H](C(N)=O)NC(=O)[C@@H](CCCNC(=N)N)NC(=O)[C@H](Cc2ccccc2)NC(=O)[C@H](Cc2c[nH]c3ccccc23)NC(=O)[C@H](CCCNC(=N)N)NC1=O (Ac-DRWF[dR]K-NH2; lactam 1-6) : Not Active
C[C@@H]1NC(=O)[C@@H](CC(N)=O)NC(=O)[C@H](Cc2ccccc2)NC(=O)[C@H](Cc2c[nH]c3ccccc23)NC(=O)[C@H](CCCNC(=N)N)NC(=O)CC[C@@H](C(N)=O)NC(=O)[C@H](Cc2ccccc2)NC1=O (RWF[dN]AFE-NH2; lactam N-7) : Not Active
CC(=O)N[C@H]1CC(=O)NCCCC[C@@H](C(N)=O)NC(=O)[C@@H](CC(N)=O)NC(=O)[C@H](Cc2ccccc2)NC(=O)[C@H](Cc2c[nH]c3ccccc23)NC(=O)[C@H](CCCNC(=N)N)NC1=O (Ac-DRWF[dN]K-NH2; lactam 1-6) : Not Active
